- System: NCI/ADR-RES
- test-protocol: NCI tumour cell line growth inhibition, 48 h
Active and inactive are the calls of the source. No stated cut-off is given here; in the data, active = GI50 up to about 1.1 µM and inactive = higher.
measured-property: GI50

Example molecules with recorded GI50:
[
  {
    "molecule": "CSC(=S)N/N=C/c1ccccc1",
    "value-observed": "25.4 µM (inactive)"
  },
  {
    "molecule": "CCOC(=O)C12CC(C)=C(C)CC1CCCc1ccccc12 (stereo unspecified)",
    "value-observed": "39.4 µM (inactive)"
  },
  {
    "molecule": "CC(C)(C)[Si](C)(C)OCC1OC(n2cnc3c(=O)[nH]cnc32)CC1O (stereo unspecified)",
    "value-observed": "> 100 µM (inactive)"
  },
  {
    "molecule": "N#Cc1sc2c(c1OC(=O)c1ccco1)c(=O)n(-c1ccccc1)c(=S)n2-c1ccccc1",
    "value-observed": "26.6 µM (inactive)"
  },
  {
    "molecule": "COc1ccc(OC)c(CNc2ccc(O)c(C(=O)NCCc3ccc(F)cc3)c2)c1",
    "value-observed": "10.1 µM (inactive)"
  }
]

For the next question, use this molecule.
Reported GI50 for NCI/ADR-RES, given `COC(=O)c1ccc(-n2c(C)nc(=O)c(-c3ccccc3)c2C)cc1` ? > 100 µM (inactive)

====

- System: HCC 2998
- test-protocol: NCI tumour cell line growth inhibition, 48 h
Active and inactive are the calls of the source. No stated cut-off is given here; in the data, active = GI50 up to about 1.1 µM and inactive = higher.
measured-property: GI50

Solved cases below.
[
  {
    "compound": "C=C1C(=O)OC2CC(C)C3C4OC4C(O)C3(C)C(O)C12 (configuration not stated)",
    "target-of-assay": "HCC 2998",
    "GI50": "30.8 µM (inactive)"
  },
  {
    "compound": "COc1ccc([C@@H]2CC(=O)NCCCNCCCCNCCCN2)cc1",
    "target-of-assay": "HCC 2998",
    "GI50": "> 100 µM (inactive)"
  },
  {
    "compound": "COc1cc2oc(=O)ccc2cc1C(=O)CC(C)C",
    "target-of-assay": "HCC 2998",
    "GI50": "> 100 µM (inactive)"
  }
]

If you can, please state the reported GI50 value of `CCCCCC(=O)OC[n+]1ccc(-c2c(COC(=O)NC(C)C)c(COC(=O)NC(C)C)c3n2CCC3)cc1` . > 100 µM (inactive)

# iterate: COc1ccc(N2C(=O)C3c4[nH]c5cc(C)ccc5c4C4CCC(C(C)(C)C)CC4C3C2=O)cc1 (configuration not stated) > 10 µM (inactive)

Next entry: `CCN1CCc2sc3nc(S)n(C)c(=O)c3c2C1` > 100 µM (inactive)

Quick one: C=C1CCC2C(C)(CO)C(O)CCC2(C)C1C/C=C1/CCOC1=O (configuration not stated) > 100 µM (inactive)

Similarly, N#CC(Cc1ccccc1)N(CCC1=CCCCC1)Cc1ccccc1 (configuration not stated) ? 28.4 µM (inactive)

====

- System: NCI-H522
- test-protocol: NCI tumour cell line growth inhibition, 48 h
The source made the active and inactive calls. Cut-off read from the data, not from the text of the source: active = GI50 up to about 1.1 µM and inactive = higher.
Consider the following compounds and their measured GI50 readings.

Example entries and their recorded answers appear below.
[
  {
    "compound": "O=C(COc1ccccc1)N(C(=O)N1CCN(c2ccccc2)CC1)S(=O)(=O)c1ccccc1",
    "value-observed": "31.9 µM (inactive)"
  },
  {
    "compound": "Nc1c(Cl)c([N+](=O)[O-])cc2c1OCCCCO2",
    "value-observed": "2.32 µM (inactive)"
  }
]

Entry `Cn1cnnc1Sc1c([N+](=O)[O-])nc(-c2ccc([N+](=O)[O-])cc2)n1C` : reported GI50 = ? 6.1 µM (inactive)

Consider next the compound `N/C(=N\c1ccc(Cl)cc1)c1ccccc1N` in the same way. > 100 µM (inactive)

Please do the same for CC(=O)O[C@]12CCCC1C1(O)C(O)CCCC12 (some centres not stated) as well. > 100 µM (inactive)

Same read-out for `NC1=NS(=O)(=O)Nc2nc(-c3ccc(Cl)cc3)[nH]c21` ? > 100 µM (inactive)

Here is the next compound: `COC(=O)c1c(C(=O)OC)c2cc(C(=O)c3ccccc3)ccn2c1Cl` 19.5 µM (inactive)
